Each entry below lists one item and its recorded growth value.
- Tested on: TK-10 renal
- Assay Text: NCI-60 one-dose screen, 48 h (100 = growth as untreated, 0 = no growth, -100 = all killed)
- Assay Context: 10 µM
About 83,000 compounds went through this panel and 20% of them were active in at least one assay; those are over-represented in the sample as a whole.
Supply the numeric figure in %, leaving out any unit text.

// solved cases for growth follow
{"columns": ["Compound", "System Tested", "Quantitative Result"],
 "data": [
  ["O=C(CCCc1ccc(N(CCCl)CCCl)cc1)OCc1ccccc1", "TK-10 renal", 107],
  ["CC1=C2C(=C[C@@](C)(C=O)[C@@H]2O)C(=O)[C@](C)(O)C12CC2", "TK-10 renal", 2.16],
  ["CN1C(=O)[C@]23SSC1(C)C(=O)N2[C@H]1Nc2ccccc2C1([C@@]12c4ccccc4N[C@@H]1N1C(=O)C4(C)SS[C@]1(C(=O)N4C)[C@H]2O)[C@@H]3O (some centres not stated)", "TK-10 renal", -95.7],
  ["N#Cc1nc(-c2ccccc2)oc1N1CCC(S(=O)(=O)F)CC1", "TK-10 renal", 113]
]}

Now examine the next entry.
// growth (TK-10 renal) for C=C1[C@@H](C)C2[C@H](Cc3ccccc3)NC(=O)[C@]23[C@H](OC(C)=O)/C=C/[C@@](C)(O)C(=O)[C@@H](C)C/C=C/[C@H]3[C@@H]1O (some centres not stated) = 26.4

----------
- System: HL-60(TB) leukemia
- Assay Text: NCI-60 one-dose screen, 48 h
- Assay Context: 10 µM unless noted
- Method: Growth inhibition of the HL-60(TB) human tumor cell line is measured as a screen for anti-cancer activity. Cells are grown in 96 well plates and exposed to the test compound for 48 hours. Compounds are tested at a single concentration, which is 10^-5 M for most compounds. The reported endpoint is percent growth (GI% or GIPRCNT), where numbers from 0 - 100% represent growth inhibition, and numbers from -100% - 0 represent cell death. For example, a value of 40 represents 60% growth inhibition. […]
About 83,000 compounds went through this panel and 20% of them were active in at least one assay; those are over-represented in the sample as a whole. The source made the active and inactive calls. How the source made its calls: active means growth percent below 10; inactive means the rest.
Please reply with one of these outcomes: active, inactive

{"columns": ["Molecule", "Label Class"],
 "data": [
  ["Brc1cc(-c2cc(-c3ccc4c(c3)OCCO4)[nH]n2)cs1", "inactive"]
]}

[Q] Look up the recorded call for Cc1ccc2c(n1)C(=O)C(Cl)=C(Nc1cccc(C(=O)OC(C)(C)C)c1)C2=O in this test.
[A] inactive

[Q] Look up the recorded call for CN1CCC[C@]2(C)[C@H]3CC[C@@H]4[C@@H]5[C@H]6OC[C@@]5(CCC6(C)C)CC[C@@]4(C)[C@]3(C)CC[C@H]2C1(C)C in this test.
[A] inactive

[Q] Look up the recorded call for O=C(c1ccc(O)cc1)[C@@H]1[C@@H]2CCCN2[C@@]2(C(=O)N(C(=O)c3ccc(F)cc3)c3ccccc32)[C@H]1c1ccc(F)cc1 in this test.
[A] inactive

[Q] Look up the recorded call for CC(c1ccccc1)N1CSc2nc3ncncc3n2C1 (centres undefined) in this test.
[A] inactive

[Q] Look up the recorded call for COC(=O)c1ccc(NC2=C(Cl)C(=O)C(C)=C(C)C2=O)cc1 in this test.
[A] inactive

[Q] Look up the recorded call for COc1ccc(C(C)=C(c2ccc(OCCN(C)C)cc2)c2ccc(OCCN(C)C)cc2)cc1 in this test.
[A] active

[Q] Look up the recorded call for COc1ccc2[nH]cc(-c3nc(N)nnc3-c3cn(C)c4ccc(Br)cc34)c2c1 in this test.
[A] active

[Q] Look up the recorded call for NC(N)=Nc1ccc(Oc2cccc(NC(N)=Nc3ccc(Br)cc3)c2)cn1 in this test.
[A] inactive

----------
- System: LOX IMVI melanoma
- Assay Text: NCI-60 one-dose screen, 48 h (100 = growth as untreated, 0 = no growth, -100 = all killed)
- Assay Context: 10 µM
About 83,000 compounds went through this panel and 20% of them were active in at least one assay; those are over-represented in the sample as a whole.
Measured Property: growth (%)
Supply the numeric figure in %, leaving out any unit text.

// solved cases for growth follow
{"columns": ["Molecule", "growth, %"],
 "data": [
  ["C=C1[C@@H](C)C2[C@H](Cc3ccccc3)NC(=O)[C@]23[C@H](OC(C)=O)/C=C/[C@@](C)(O)C(=O)[C@@H](C)C/C=C/[C@H]3[C@@H]1O (stereo partly drawn)", 1.65],
  ["CC1=C[C@H]2O[C@@H]3C[C@H]4OC(=O)/C=C\\C=C\\[C@H]([C@@H](C)O)OCC[C@@H](C)[C@H](O)C(=O)OC[C@@]2(CC1)[C@]4(C)[C@]31CO1", -79],
  ["C/C=C\\C(=O)O[C@@H]1CC2O[C@@H]3C=C(C)C(=O)C[C@]3(C)[C@]1(C)[C@]21CO1", -56.3],
  ["C/C=C/CC(C)C(O)[C@H](NC(=O)[C@@H]1CCCN1C(=O)C(C)(C)NC(=O)CCCCCCC)C(=O)N[C@@](C)(CC)C(=O)N[C@@H](CCC(N)=O)C(=O)N[C@H](CCC(N)=O)C(=O)NC(C)(C)C(=O)NC(C)(C)C(=O)N[C@@H](CCC(N)=O)C(=O)N[C@H](CC(C)C)C(=O)N[C@H](CO)CC(C)C (stereo partly drawn)", 33.2],
  ["COc1cc2c(O[C@@H]3OC[C@H](OC(C)=O)[C@H](OC(C)=O)[C@H]3O)c3c(c(-c4ccc5c(c4)OCO5)c2cc1OC)C(=O)OC3", -53.7],
  ["C[C@@H]1C[C@H]2C(=O)O[C@@H](C)C(NC(=O)[C@H](Cc3cc(F)cc(F)c3)NC(=O)Nc3ccc(OS(=O)(=O)F)cc3)C(=O)N3CCC[C@H]3C(=O)N3CCO[C@H](C)[C@H]3C(=O)N[C@@H](CO)C(=O)N2C1 (stereo partly drawn)", 7.58],
  ["Cc1ccc(CNc2nc3ccc(OC/C(=C/F)CN)cc3o2)cn1", 88.4],
  ["CN1C(=O)[C@]23SSC1(C)C(=O)N2[C@H]1Nc2ccccc2C1([C@@]12c4ccccc4N[C@@H]1N1C(=O)C4(C)SS[C@]1(C(=O)N4C)[C@H]2O)[C@@H]3O (stereo partly drawn)", -89.9],
  ["CC1=C2C(=C[C@@](C)(COC(=O)c3ccc(S(=O)(=O)F)cc3)[C@@H]2O)C(=O)[C@](C)(O)C12CC2", -40.2],
  ["C[C@@H]1CCC/C=C/[C@H]2C[C@@H](O)C[C@@H]2[C@@H](O)/C=C/C(=O)O1", -70]
]}

Entry under test: O=C(CCCc1ccc(N(CCCl)CCCl)cc1)OCc1ccccc1 . Its growth was 77.2

Entry under test: CC1=C2C(=C[C@@](C)(C=O)[C@@H]2O)C(=O)[C@](C)(O)C12CC2 . Its growth was 2.16

Entry under test: COC1[C@@H]2C[C@H]3C(C)(C)O[C@@](C/C=C(/C)C(=O)O)(C2=O)[C@]32Oc3c(CC=C(C)C)c4c(c(O)c3C(=O)[C@H]12)C=CC(C)(C)O4 (stereo partly drawn) . Its growth was -97.2

----------
- Test system: HL-60(TB) leukemia
- Assay Text: NCI-60 one-dose screen, 48 h
- Assay Context: 10 µM unless noted
Compounds without any hit were thinned out: in the full panel of roughly 83,000, 20% have a hit. Activity calls are given as the source filed them. The calls were made as follows: active = growth percent below 10; inactive = the rest.
Please reply with one of these outcomes: active, inactive

Please review the following examples before continuing.
{"columns": ["Entry Smiles", "Label Class"],
 "data": [
  ["COc1ccc(/C=C(/C)c2ccc3ccc(OC)cc3[o+]2)c(O)c1", "inactive"],
  ["Cc1ccc(NC(=O)c2ccc(CN3CCOCC3)c(C(F)(F)F)c2)cc1Oc1ccc(-c2[nH]nc3ncnc(N)c23)cc1", "inactive"],
  ["CN1CCN(Cc2ccc(NC(=O)c3cncc(C#Cc4cnc5ccc(OCC6COC6)nn45)c3)cc2C(F)(F)F)CC1", "active"],
  ["COc1cc2c(cc1OC)[C@@H]1N(CC2)C(=O)c2ccccc2[C@@]1(C)C(=O)O", "inactive"],
  ["O=C(Nc1ccc(F)cc1)c1cc(-c2ccc(F)cc2F)ccc1O", "active"]
]}

[Q] Look up the recorded call for Cn1cc(-c2cc(N)n3nc(-c4cn(C)c5ccccc45)cc3n2)c2ccccc21 in this test.
[A] inactive

[Q] Look up the recorded call for Cc1ccccc1Nc1nc(SC(C)C)nc(-c2ccccc2)c1C#N in this test.
[A] inactive

[Q] Look up the recorded call for O=C(c1ccc(O)c(C(=O)N2Cc3ccc(OCCC[P+](c4ccccc4)(c4ccccc4)c4ccccc4)cc3C2)c1)N1Cc2cccc(F)c2C1 in this test.
[A] inactive

[Q] Look up the recorded call for Nc1c(C(=O)c2ccc(Br)cc2)oc2nc(-c3cnccn3)cc(-c3cccs3)c12 in this test.
[A] inactive
